- System tested: HDAC2 (Homo sapiens)
- Sequence (Q92769 whole entry): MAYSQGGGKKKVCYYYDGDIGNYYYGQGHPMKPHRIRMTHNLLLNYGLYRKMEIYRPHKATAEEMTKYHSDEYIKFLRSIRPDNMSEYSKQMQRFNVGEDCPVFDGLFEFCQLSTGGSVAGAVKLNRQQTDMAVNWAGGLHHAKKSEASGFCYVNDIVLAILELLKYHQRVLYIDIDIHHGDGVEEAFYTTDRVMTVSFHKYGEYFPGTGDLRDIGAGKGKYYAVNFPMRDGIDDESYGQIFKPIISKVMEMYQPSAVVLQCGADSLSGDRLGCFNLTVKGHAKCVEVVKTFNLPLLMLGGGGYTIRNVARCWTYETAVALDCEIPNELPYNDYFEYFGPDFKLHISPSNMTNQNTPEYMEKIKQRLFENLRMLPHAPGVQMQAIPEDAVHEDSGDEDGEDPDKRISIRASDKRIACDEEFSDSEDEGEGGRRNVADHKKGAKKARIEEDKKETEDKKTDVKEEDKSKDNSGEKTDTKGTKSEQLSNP
Experimental readout: IC50 (nM)
A number alone suffices; assume nM.

[Q] What is its IC50 for HDAC2 (Homo sapiens)? Entry: COc1ccc(CN2[C@@H](C(=O)NCCCCCCC(=O)NO)Cc3c([nH]c4ccccc34)[C@@H]2C2CC2)cc1 [Compound 13d]
[A] 23.5

###

Sequence of the target: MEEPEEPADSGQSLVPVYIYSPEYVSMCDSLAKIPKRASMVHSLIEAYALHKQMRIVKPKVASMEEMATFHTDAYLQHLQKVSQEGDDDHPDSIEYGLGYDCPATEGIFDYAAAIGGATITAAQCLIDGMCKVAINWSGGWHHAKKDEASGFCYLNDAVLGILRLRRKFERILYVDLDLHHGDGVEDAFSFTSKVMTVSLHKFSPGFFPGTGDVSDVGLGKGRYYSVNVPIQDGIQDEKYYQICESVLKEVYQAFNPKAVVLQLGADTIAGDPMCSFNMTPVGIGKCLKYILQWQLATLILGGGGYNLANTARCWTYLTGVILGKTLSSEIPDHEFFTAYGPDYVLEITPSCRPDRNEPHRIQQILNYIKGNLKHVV
Experimental readout: IC50

[Q] So what's the measured IC50 for this one? COc1ccc(CN2[C@@H](C(=O)NCCCCCCC(=O)NO)Cc3c([nH]c4ccccc34)[C@@H]2C2CC2)cc1 [Compound 13d]
[A] > 50 µM
